molecular target: T-type calcium channel (Homo sapiens, UniProt O95180); assay: T-type channel blocking, FLIPR data (Table 6); type: cell-based; details: CAv3.2, closed state, read-out: CAv3.2 IC50 Closed
Sequence (O95180 whole entry): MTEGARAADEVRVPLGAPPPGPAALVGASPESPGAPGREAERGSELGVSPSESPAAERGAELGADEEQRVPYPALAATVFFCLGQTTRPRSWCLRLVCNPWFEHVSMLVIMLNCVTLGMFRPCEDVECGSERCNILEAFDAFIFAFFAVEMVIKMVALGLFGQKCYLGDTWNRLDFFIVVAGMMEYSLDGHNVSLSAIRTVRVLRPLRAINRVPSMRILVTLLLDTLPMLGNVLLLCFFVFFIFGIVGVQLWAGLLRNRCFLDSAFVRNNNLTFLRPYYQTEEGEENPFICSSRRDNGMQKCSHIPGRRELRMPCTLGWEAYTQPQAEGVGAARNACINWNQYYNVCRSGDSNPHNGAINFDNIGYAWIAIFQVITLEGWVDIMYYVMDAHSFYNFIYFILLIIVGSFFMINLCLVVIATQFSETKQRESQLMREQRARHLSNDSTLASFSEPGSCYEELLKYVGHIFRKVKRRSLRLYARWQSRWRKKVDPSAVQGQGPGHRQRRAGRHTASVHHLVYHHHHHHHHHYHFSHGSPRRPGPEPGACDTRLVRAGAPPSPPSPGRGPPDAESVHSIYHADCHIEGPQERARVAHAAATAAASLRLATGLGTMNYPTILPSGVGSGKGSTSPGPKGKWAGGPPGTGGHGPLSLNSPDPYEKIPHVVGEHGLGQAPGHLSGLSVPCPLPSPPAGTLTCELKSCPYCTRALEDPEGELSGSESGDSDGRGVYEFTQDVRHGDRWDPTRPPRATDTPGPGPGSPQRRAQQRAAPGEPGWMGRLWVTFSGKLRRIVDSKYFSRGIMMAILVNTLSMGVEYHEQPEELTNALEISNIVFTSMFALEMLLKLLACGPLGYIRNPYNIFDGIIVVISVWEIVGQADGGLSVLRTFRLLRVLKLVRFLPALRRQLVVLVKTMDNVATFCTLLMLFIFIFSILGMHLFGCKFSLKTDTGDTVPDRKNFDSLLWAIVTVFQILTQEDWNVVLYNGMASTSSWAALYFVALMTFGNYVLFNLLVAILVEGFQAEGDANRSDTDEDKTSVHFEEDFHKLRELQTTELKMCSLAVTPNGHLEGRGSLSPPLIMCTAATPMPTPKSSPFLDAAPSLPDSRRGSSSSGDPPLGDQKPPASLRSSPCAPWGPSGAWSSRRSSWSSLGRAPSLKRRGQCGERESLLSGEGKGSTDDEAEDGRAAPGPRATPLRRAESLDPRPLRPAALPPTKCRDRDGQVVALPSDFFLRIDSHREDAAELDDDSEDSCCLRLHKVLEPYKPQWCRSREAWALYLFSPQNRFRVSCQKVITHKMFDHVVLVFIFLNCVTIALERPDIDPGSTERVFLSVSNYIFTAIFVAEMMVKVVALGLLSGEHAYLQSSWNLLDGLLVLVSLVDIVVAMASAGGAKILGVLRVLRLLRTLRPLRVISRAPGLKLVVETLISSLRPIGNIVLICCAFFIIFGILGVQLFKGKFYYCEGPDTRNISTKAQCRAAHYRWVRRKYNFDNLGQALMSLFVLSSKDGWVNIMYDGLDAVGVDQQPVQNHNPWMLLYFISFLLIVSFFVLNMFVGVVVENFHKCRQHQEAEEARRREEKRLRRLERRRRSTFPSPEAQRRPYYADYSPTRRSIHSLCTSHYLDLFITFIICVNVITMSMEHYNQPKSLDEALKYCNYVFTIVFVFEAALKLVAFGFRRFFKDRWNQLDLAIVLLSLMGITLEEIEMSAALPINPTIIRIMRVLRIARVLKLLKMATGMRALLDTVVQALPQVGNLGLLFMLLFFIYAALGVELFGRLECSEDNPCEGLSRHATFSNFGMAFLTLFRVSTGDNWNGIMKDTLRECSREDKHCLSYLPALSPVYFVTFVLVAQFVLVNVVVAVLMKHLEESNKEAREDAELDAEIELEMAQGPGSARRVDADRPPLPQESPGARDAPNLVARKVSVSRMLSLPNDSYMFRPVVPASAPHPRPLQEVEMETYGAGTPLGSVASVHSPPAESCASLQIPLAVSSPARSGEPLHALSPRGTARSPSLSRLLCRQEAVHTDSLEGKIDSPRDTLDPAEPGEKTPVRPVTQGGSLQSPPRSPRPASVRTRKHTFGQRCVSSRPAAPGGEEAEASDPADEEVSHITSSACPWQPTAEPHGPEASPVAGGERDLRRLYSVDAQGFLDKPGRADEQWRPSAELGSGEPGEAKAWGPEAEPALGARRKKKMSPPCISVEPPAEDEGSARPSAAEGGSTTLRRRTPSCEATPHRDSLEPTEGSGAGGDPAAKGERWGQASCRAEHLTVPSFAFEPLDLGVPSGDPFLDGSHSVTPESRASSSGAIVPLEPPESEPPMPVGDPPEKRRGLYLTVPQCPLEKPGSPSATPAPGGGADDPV
measurement-type: pIC50
Just so you know, pIC50 here is -log10 of the concentration in molar units; reply with that number alone.

Use these answered entries as a reference point.
# pIC50 lookup, item CC(C)(C[C@H]1C[C@H](NC(=O)c2cnc(C(F)(F)F)nc2)C1)S(=O)(=O)c1cccc(C(F)(F)F)c1
5.07

# pIC50 lookup, item CC(C)([C@H]1C[C@H](C(=O)Nc2ccc(C(F)(F)F)nc2)C1)S(=O)(=O)c1cccc(C(F)(F)F)c1
5.34

# pIC50 lookup, item CC(C)([C@H]1C[C@@H](Nc2ccnc(C(F)(F)F)n2)C1)S(=O)(=O)c1cccc(OC(F)(F)F)c1
5.28

Below: the item to evaluate.
# pIC50 lookup, item CC(C)([C@H]1C[C@@H](CNC(=O)c2ncc(C(F)(F)F)cn2)C1)S(=O)(=O)c1cccc(C(F)(F)F)c1
5.33
